Ref: PubChem BioAssay AID1159580

- protocol details: chemical genetic growth profiling, strain panel (AID 1159580);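 also: tested at 20 µM; growth read once vehicle control cultures reached saturation at 30 °C; 1 = growth at the plate median or of vehicle wells; lower values mean less growth of the strain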
- conditions used: S. cerevisiae deletion strains, growth OD, locus YOR144C, strain elg1, stronger effect = lower value
Among all 5,500 compounds or so, about 2,000 (36%) were called active. Not shown: some 18% with an inconclusive outcome. The list shows a part of the results.
reported property: normalized growth
The answer should be written as a number, with no unit following it.

Would you please look over these solved cases?
molecule: NCC1OC(OC2C(CO)OC(OC3C(O)C(N)CC(N)C3OC3OC(CO)C(O)CC3N)C2O)C(N)C(O)C1OC1OC(CO)C(O)C(O)C1O (stereo not drawn)
reported property: normalized growth
value measured: 0.985

molecule: NC[C@H]1O[C@H](O[C@H]2[C@H](O)[C@@H](O[C@H]3O[C@H](CO)[C@@H](O)[C@H](N)[C@H]3O)[C@H](N)C[C@@H]2N)[C@H](N)C[C@@H]1O
reported property: normalized growth
value measured: 1.01

Report normalized growth for Cc1c(NC(=O)c2cccnc2)c(=O)n(-c2ccccc2)n1C please.
0.994

Item CCCc1nc2c(C)cc(-c3nc4ccccc4n3C)cc2n1Cc1ccc(-c2ccccc2C(=O)O)cc1 has what recorded normalized growth?
1.01

# get_value(readout='normalized growth', item= CN1CCN(CC(=O)N2c3ccccc3C(=O)Nc3cccnc32)CC1 )
1.02

Any idea what its normalized growth is? The molecule is CC(=O)Oc1cc2c(c(C)c1OC(C)=O)CC1OC13C2(C)CCC1(C)C2CC(C)(C(=O)O)CCC2(C)CCC13C (stereo not drawn)
1.03

Can you look up the measured normalized growth of CO[C@@]1(NC(=O)Cc2cccs2)C(=O)N2C(C(=O)O)=C(COC(N)=O)CS[C@@H]21 for me?
0.998

What value of normalized growth has been reported for the following molecule? CCN(CC)CCNC(=O)c1cc(Cl)c(N)cc1OC
1

###

Overview of reported normalized growth across a group of compounds:
- protocol details: chemical genetic growth profiling, strain panel (AID 1159580);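 also: tested at 20 µM; growth read once vehicle control cultures reached saturation at 30 °C; 1 = growth at the plate median or of vehicle wells; lower values mean less growth of the strain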
- conditions used: S. cerevisiae deletion strains, growth OD, locus YGL253W, strain hxk2, stronger effect = lower value
Screen size: about 5,500 compounds; about 2,000 (36%) were called active. Inconclusive results (about 18%) are left out. The list shows a part of the results. *1 amine or outer side, *2 acyl side, *3 side chain or, on linkers, in order; H or OH if unused. Where a SMILES comes first, the peptide text is derived from it. Bridges are numbered along the chain shown (N, C = ends). [ ]: non-standard residue; d: D form. The star is where a group is joined. ξ: configuration not given here. ΔAla(E,3-NHCONH2) = NC(=O)N/C=C(/N)C(=O)O; X2 = NC1=NCCC(C(N[*:1])C(=O)[*:2])N1; ξβ3hOrn = NCCCC(N)CC(=O)*; Dap = NC[CH](N)C(=O)O
Keep it simple and answer with nothing but the number.

Would you please look over these solved cases?
compound: CC(=O)[C@@]1(O)CCC2C3CCC4=CC(=O)CC[C@]4(C)C3CC[C@@]21C (some centres undefined)
normalized growth: 0.997

compound: Cc1cc(=O)n(-c2ccccc2)n1C
normalized growth: 0.975

compound: NC(=O)NO
normalized growth: 1.03

compound: CN1CCN(CCC=C2c3ccccc3Sc3ccc(S(=O)(=O)N(C)C)cc32)CC1
normalized growth: 0.889

Quick one: normalized growth of NCCc1cc(O)c(O)cc1O ?
0.963

Consider the compound shown here: CNS(=O)(=O)c1ccc(NC(=O)c2ccccc2C(=O)O)cc1 What is its recorded normalized growth?
0.998

What does the data say about its normalized growth? Entry: COc1c2occc2c(OC)c2c(=O)cc(C)oc12
0.958

Please give the measured normalized growth for this compound: COc1c2ccoc2cc2oc(C)cc(=O)c12
0.988

Fill in: normalized growth of CC1=NN(c2ccccc2)C(=O)C1 is ___
0.976

Tell me the measured normalized growth of NCCCC(N)CC(=O)NCC1NC(=O)C(CO)NC(=O)C(N)CNC(=O)C(C2CCN=C(N)N2)NC(=O)/C(=C\NC(N)=O)NC1=O (stereo not drawn) (H-[Dap]S[Dap](ξβ3hOrn)[ΔAla(E,3-NHCONH2)][X2]; lactam 1-C; configuration not given here) , please.
0.984

Item under review: OCCN1CCN(CCCN2c3ccccc3Sc3ccc(C(F)(F)F)cc32)CC1 . Reported normalized growth?
0.917

Fill blank: measured normalized growth of the compound CC[C@H]1CN2CCc3cc(OC)c(OC)cc3C2C[C@@H]1CC1NCCc2cc(OC)c(OC)cc21 (some centres undefined) is ____.
0.95

Would you mind telling me what normalized growth value was observed for COc1ccc2c(=O)ccoc2c1 ?
1.02

Sample CC(=O)NS(=O)(=O)c1ccc(NC(=O)c2ccccc2C(=O)O)cc1 — what was its normalized growth?
1.02

###

- protocol details: chemical genetic growth profiling, strain panel (AID 1159580);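 also: tested at 20 µM; growth read once vehicle control cultures reached saturation at 30 °C; 1 = growth at the plate median or of vehicle wells; lower values mean less growth of the strain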
- conditions used: S. cerevisiae deletion strains, growth OD, locus YBR231C, strain swc5
The campaign covered roughly 5,500 compounds. About 2,000 (36%) were called active. Another 18% or so got no clear call; they are omitted. Cut-off read from the data, not from the text of the source: active = normalized growth mostly below about 0.91 (no sharp cut-off); inconclusive = no clear call, values can overlap the other calls; inactive = mostly above about 0.92. The list shows a part of the results.
The reply should name one outcome from true (1) = active, false (0) = inactive

Example cases with answers are listed next.
compound: CC(=O)Oc1cc2c(c(C)c1OC(C)=O)CC1OC13C2(C)CCC1(C)C2CC(C)(C(=O)O)CCC2(C)CCC13C (stereo not given)
answer label: false (0)
//
compound: COc1c2occc2c(OC)c2c(=O)cc(C)oc12
answer label: false (0)
//
compound: O=C(CCc1ccc(O)cc1)c1c(O)cc(O)cc1O[C@@H]1O[C@H](CO)[C@@H](O)[C@H](O)[C@H]1O
answer label: false (0)
//
compound: OCCN1CCN(CCCN2c3ccccc3Sc3ccc(C(F)(F)F)cc32)CC1
answer label: false (0)

# lookup: test call for Cc1onc(-c2ccccc2)c1C(=O)NC1C(=O)N2[C@@H]1SC(C)(C)[C@@H]2C(=O)O (stereo not given in full)
false (0)

# fetch the recorded call for C[C@]12CCC(=O)C=C1CCC1C2C(=O)C[C@@]2(C)C1CC[C@]2(O)C(=O)CO (stereo not given in full) here
false (0)

GET /call?item= Cc1onc(-c2ccccc2Cl)c1C(=O)N[C@@H]1C(=O)N2[C@@H]1SC(C)(C)[C@@H]2C(=O)O returns the recorded outcome of this test.
false (0)

GET /call?item= CC(=O)O[C@@H]1CC[C@]2(C)C3CC[C@]4(C)C(=O)CCC4C3CC[C@H]2C1 (stereo not given in full) returns the recorded outcome of this test.
false (0)

###

- protocol details: chemical genetic growth profiling, strain panel (AID 1159580);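 also: tested at 20 µM; growth read once vehicle control cultures reached saturation at 30 °C; 1 = growth at the plate median or of vehicle wells; lower values mean less growth of the strain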
- conditions used: S. cerevisiae deletion strains, growth OD, locus YKR091W, strain srl3
The whole screen tested about 5,500 compounds, of which about 2,000 (36%) were called active. About 18% were inconclusive and are not listed. Rule as the data show it: active = normalized growth mostly below about 0.91 (no sharp cut-off); inconclusive = no clear call, values can overlap the other calls; inactive = mostly above about 0.92. Some of the results follow.
The reply should be one of these categories: 1 = active, 0 = inactive

compound: OCCN1CCN(CCCN2c3ccccc3Sc3ccc(C(F)(F)F)cc32)CC1
answer label: 0

compound: CNC(Cc1c[nH]c2ccccc12)C(=O)O (centres undefined)
answer label: 0

compound: CNS(=O)(=O)Cc1ccc2[nH]cc(CCN(C)C)c2c1
answer label: 0

compound: COc1c2ccoc2cc2oc(C)cc(=O)c12
answer label: 0

compound: O=C(OC[C@H]1O[C@H](OC(=O)c2cc(O)c(O)c(OC(=O)c3cc(O)c(O)c(O)c3)c2)[C@H](OC(=O)c2cc(O)c(O)c(OC(=O)c3cc(O)c(O)c(O)c3)c2)[C@@H](OC(=O)c2cc(O)c(O)c(OC(=O)c3cc(O)c(O)c(O)c3)c2)[C@@H]1OC(=O)c1cc(O)c(O)c(OC(=O)c2cc(O)c(O)c(O)c2)c1)c1cc(O)c(O)c(OC(=O)c2cc(O)c(O)c(O)c2)c1
answer label: 0

compound: O=C(NC1CCCCC1)NC1CCCCC1
answer label: 0

compound: OCc1c[nH]c2ccccc12
answer label: 0

compound: CCCCc1nc(Cl)c(CO)n1Cc1ccc(-c2ccccc2-c2nn[nH]n2)cc1
answer label: 0

compound: c1ccc2c(Cc3c[nH]c4ccccc34)c[nH]c2c1
answer label: 1

compound: CC(NCCC(c1ccccc1)c1ccccc1)c1ccccc1 (centres undefined)
answer label: 0

Just curious, what result did COc1cnc(NS(=O)(=O)c2ccc(N)cc2)nc1 get here?
0

Identify the outcome logged in this assay for the compound shown: CCCc1nc2c(C)cc(-c3nc4ccccc4n3C)cc2n1Cc1ccc(-c2ccccc2C(=O)O)cc1
0

// param item: CN1CCN(CCC=C2c3ccccc3Sc3ccc(S(=O)(=O)N(C)C)cc32)CC1 ; yields the recorded call
0

What was the test verdict on NC(N)=NC(N)=Nc1ccccc1 ?
0

// return assay outcome for CCOC([O-])=Nc1c[n+](N2CCOCC2)no1
0
